# test.name: 10x dilution of soluble forms with standard IV solutions (pH, precipitate)
# Type: physicochemical
# condition.context: concentrated Cpd B solution diluted 10x with Lactated Ringer's Solution; precipitate at 4 hr
observable: Solution 4 ppt 4 hr

• CCn1cc(C(=O)O)c(=O)c2cc(F)c(N3CCNCC3)nc21 [B Methane Sulphonic] = yes
• CCn1cc(C(=O)O)c(=O)c2cc(F)c(N3CCNCC3)nc21 [B Lactic] = yes
• CCn1cc(C(=O)O)c(=O)c2cc(F)c(N3CCNCC3)nc21 [B L-Cysteic] = yes

----------
# test.name: Solubility screening procedure (concentration and pH of filtrate)
# Format: physicochemical
# condition.context: pH of the filtrate, CPD A solutions
Listing: pH of Solution of selected molecules
# answer = number (no unit)

- CCn1cc(C(=O)O)c(=O)c2cc(F)c(N3CCNCC3)cc21 [A Oxalic]: 2.14

Can you look up the measured pH of Solution of CCn1cc(C(=O)O)c(=O)c2cc(F)c(N3CCNCC3)cc21 [A L-Glutamic] for me?
5.08

# query: pH of Solution of entry CCn1cc(C(=O)O)c(=O)c2cc(F)c(N3CCNCC3)cc21 [A L-Aspartic]
4.88

For the molecule shown here, CCn1cc(C(=O)O)c(=O)c2cc(F)c(N3CCNCC3)cc21 [A Choline] , give the reported pH of Solution.
10.34

Tell me the measured pH of Solution of CCn1cc(C(=O)O)c(=O)c2cc(F)c(N3CCNCC3)cc21 [A Sodium Hydroxide] , please.
10.0

----------
# test.name: 10x dilution of soluble forms with standard IV solutions (pH, precipitate)
# Assay type: physicochemical
# condition.context: concentrated Cpd B solution (154-221 mg/ml) diluted 10x with 5% Dextrose + 0.9% NaCl
observable: Solution 3 pH dil
A bare number is all that is needed in reply.

As a guide, the following entries are already answered.
* CCn1cc(C(=O)O)c(=O)c2cc(F)c(N3CCNCC3)nc21 [B D-Gluconic] | 4.8
* CCn1cc(C(=O)O)c(=O)c2cc(F)c(N3CCNCC3)nc21 [B Methane Sulphonic] | 2.8
* CCn1cc(C(=O)O)c(=O)c2cc(F)c(N3CCNCC3)nc21 [B Isethionic] | 2.14
* CCn1cc(C(=O)O)c(=O)c2cc(F)c(N3CCNCC3)nc21 [B Lactic] | 4.1

As a next step, examine the molecule that follows.
What value of Solution 3 pH dil has been reported for the following molecule? CCn1cc(C(=O)O)c(=O)c2cc(F)c(N3CCNCC3)nc21 [B Acetic]
5.4

----------
# test.name: 10x dilution of soluble forms with standard IV solutions (pH, precipitate)
# Format: physicochemical
# condition.context: concentrated Cpd B solution (154-221 mg/ml) diluted 10x with Lactated Ringer's Solution
Rule: Solution 4 pH dil of 5 or more gives rule met; anything lower gives rule not met.

Check out these entries, answers already filled in.
- CCn1cc(C(=O)O)c(=O)c2cc(F)c(N3CCNCC3)nc21 [B Isethionic]: rule not met
- CCn1cc(C(=O)O)c(=O)c2cc(F)c(N3CCNCC3)nc21 [B Lactic]: rule not met
- CCn1cc(C(=O)O)c(=O)c2cc(F)c(N3CCNCC3)nc21 [B D-Gluconic]: rule not met
- CCn1cc(C(=O)O)c(=O)c2cc(F)c(N3CCNCC3)nc21 [B L-Cysteic]: rule not met
- CCn1cc(C(=O)O)c(=O)c2cc(F)c(N3CCNCC3)nc21 [B Methane Sulphonic]: rule not met

Please find the next molecule below.
Is it the case that CCn1cc(C(=O)O)c(=O)c2cc(F)c(N3CCNCC3)nc21 [B Acetic] has Solution 4 pH dil reaching or exceeding 5?
rule met
